- test_description: qHTS for Inhibitors of human tyrosyl-DNA phosphodiesterase 1 (TDP1): qHTS in cells in presence of CPT; further: nearly all actives have a fitted effect of over 55% in size
- condition_description: chicken DT40 Tdp1-/-;hTDP1 cells + 20 nM CPT, ATP luminescence, 48 h; series mostly up to 46.2 µM
About 50,000 (12%) of roughly 420,000 compounds were called active. About 26% were inconclusive and are not listed. The call rests on the fitted dose curve; in most records, active means well fitted inhibition curve with a large enough effect; inconclusive means small, poorly fitted or top-dose-only effect; inactive means flat fitted curve, though single readings scatter. This excerpt belongs to a sample that is enriched for actives.
In this exercise, the only acceptable responses are active, inactive

>  <compound>
CCNC(=O)C1(C)CCCN(C(=O)c2c(C)noc2C)C1 (stereo unspecified)

>  <group_label>
inactive

$$$$
>  <compound>
COc1ccc(OCc2n[nH]c(=S)n2N)cc1

>  <group_label>
active

$$$$
>  <compound>
Cc1ccc(N2C(=O)C(NC(=O)c3c(F)cccc3F)(C(F)(F)F)C3=C2CC(C)(C)CC3=O)cc1 (stereo unspecified)

>  <group_label>
inactive

$$$$

Write down the call the test reported for this compound. Item: O=C(NC(Nc1nc2ccc([N+](=O)[O-])cc2s1)(C(F)(F)F)C(F)(F)F)c1ccccc1
active

Write down the call the test reported for this compound. Item: CCN(CC)Cc1cc(C(C)=O)ccc1O
inactive

* * *

- test_description: qHTS for Inhibitors of human tyrosyl-DNA phosphodiesterase 1 (TDP1): qHTS in cells in presence of CPT; further: nearly all actives have a fitted effect of over 55% in size
- condition_description: chicken DT40 Tdp1-/-;hTDP1 cells + 20 nM CPT, ATP luminescence, 48 h; series mostly up to 46.2 µM
In all, about 420,000 compounds went through this assay and about 50,000 (12%) were called active. Another 26% or so got no clear call; they are omitted. Calls come from the whole dose curve; as a rule, active = well fitted inhibition curve with a large enough effect; inconclusive = small, poorly fitted or top-dose-only effect; inactive = flat fitted curve, though single readings scatter. The entries come from a sample that favours actives as a whole.
In this exercise, the only acceptable responses are active, inactive

>  <molecule>
COc1ccc(CN2CN(C3CCCC3)CSC2=S)cc1

>  <group_label>
active

$$$$
>  <molecule>
O=C(NCCc1ccccc1)C(=O)NCC1OCCN1S(=O)(=O)c1cccs1 (stereo not given)

>  <group_label>
inactive

$$$$
>  <molecule>
COc1cccc(C(=O)N2CCC(n3nccc3NC(=O)C3CCOC3)CC2)c1 (stereo not given)

>  <group_label>
inactive

$$$$

Write down the call the test reported for this molecule. Item: CCN(CC)Cc1nc2sc(C)c(C)c2c(=O)[nH]1
inactive

Write down the call the test reported for this molecule. Item: NC(=O)CN1CCCC1c1ccc2c(c1)OCCO2 (stereo not given)
inactive

Write down the call the test reported for this molecule. Item: Cc1sc2nc(CSCC(=O)Nc3c(Cl)cccc3Cl)[nH]c(=O)c2c1C
active

Write down the call the test reported for this molecule. Item: Cc1sc2nc(COC(=O)C(NC(=O)c3ccc(Cl)cc3Cl)C(C)C)[nH]c(=O)c2c1C (stereo not given)
inactive

Write down the call the test reported for this molecule. Item: CC(=O)OC1CCC2(O)CC1(C)CCC1C2CC1(C)C (stereo not given)
inactive

Write down the call the test reported for this molecule. Item: O=C(CCNC(=O)c1ccc([N+](=O)[O-])cc1)NC1CCCCC1
inactive

Write down the call the test reported for this molecule. Item: Cc1ccc(-c2cc(C(=O)N/N=C/C=C/c3ccco3)c3ccccc3n2)cc1C
active

Write down the call the test reported for this molecule. Item: O=C(Nc1nnc(C2CC2)s1)C1=NN(C2CCS(=O)(=O)C2)C(=O)CC1 (stereo not given)
inactive

Write down the call the test reported for this molecule. Item: CCOc1ccccc1CNS(=O)(=O)c1cc(-c2cc(C)no2)ccc1C
inactive

Write down the call the test reported for this molecule. Item: CC(C)C1C2=C(CC(C)(C)CC2=O)ON1c1ccccc1 (stereo not given)
active
